Target: T1, P6-AA-1HAA-N
T1 chain: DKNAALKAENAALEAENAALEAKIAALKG
Test: two-hybrid library CCmax;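 note: natural log of median RNA to DNA barcode read ratio; higher means stronger binding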
Settings: mean of both orientations
measure.name: interaction score
Please reply with the value in numeric form only.

Here are 3 binders together with their reported answers.
| binder | observed.value |
| --- | --- |
| DENAALEAKNAALKAKNAALKAEIAALEG [P5-AA-1HAA-N] | 2.27 |
| DENAALEAKDAALKAKDAALKAEIAALEG [P5-AA-12HAA-D] | -1.68 |
| DENAALEAKEAALKAKEAALKAEIAALEG [P5-AA-12HAA-E] | -1.74 |

What value of measured interaction score is listed for DENAALEAKRAALKAKNAALKAEIAALEG [P5-AA-1HAA-R] ?
1.85
